Values compiled from patent US7705010B2.

# Tested on: U87 human glioma
# method: WST-1 cytotoxic screening, U87 Glioma
# test.conditions: Homo sapiens, U-87 MG, 24 h, read-out: Effective concentration for 50% cell death (EC50)
Structures can show the parent of a compound that is named as a salt.
measured.parameter: EC50 (µM)
Numeric only. Scale: µM

Which EC50 value belongs to Nc1cc(N2CCCCC2)nc(N)[n+]1OS(=O)(=O)[O-] [Minoxidil Sulfate, minoxidil sulfate] ? 308

====

# System: HBMVEC Endothelial
# method: WST-1 cytotoxic screening, HBMVEC Endothelial
# test.conditions: 24 h, read-out: Effective concentration for 50% cell death (EC50)
# Experimental: Thus, the inventors examined the in vitro effect of several ATP-dependent potassium channel agonists on cell viability in a wide range of tumor and normal cells. Table 1 depicts the in vitro effect of KATP channel agonists on cell viability in a range of tumor and normal cells. The cytotoxic screening assay (WST-1 assay; Roche Diagnostics) results shown are the effective KATP channel agonist concentration (μM) required for 50% cell death (EC50) after exposure to the same for 24 hours. […]
Where a name gives a salt, the structure may show the parent alone.
measured.parameter: EC50

Given the entry Nc1cc(N2CCCCC2)nc(N)[n+]1OS(=O)(=O)[O-] [Minoxidil Sulfate, minoxidil sulfate] , what EC50 was observed with HBMVEC Endothelial? > 1000 µM

Please look at the following molecule next.
Lab note: need EC50 with HBMVEC Endothelial for entry CC(N/C(=N\C#N)Nc1ccncc1)C(C)(C)C (centres unmarked) , please look it up. > 1000 µM

====

viability at 24 h, 1000 μM values for the compounds below.
# method: WST-1 cytotoxic screening, HBMVEC Endothelial
# test.conditions: human, HBMVEC endothelial cells (non-cancer)
Where a name gives a salt, the structure may show the parent alone.
Please don't drop the unit; write it after the number.

Requested read-out: viability at 24 h, 1000 μM. Entry: CC(N/C(=N\C#N)Nc1ccncc1)C(C)(C)C (centres unmarked) [Pinacidil, pinacidil] 106%

Next item in the queue.
Given the entry Nc1cc(N2CCCCC2)nc(N)[n+]1OS(=O)(=O)[O-] [Minoxidil Sulfate, minoxidil sulfate] , report its measured viability at 24 h, 1000 μM. 84%

====

# Test system: GL-26 Glioma
# method: cells
# test.conditions: Mus musculus, GL26, 24 h, read-out: Effective concentration for 50% cell death (EC50)
Where a name gives a salt, the structure may show the parent alone.
measured.parameter: pEC50
Note on units: pEC50 is unitless, being -log10 of a concentration expressed in mol/L.

Record Nc1cc(N2CCCCC2)nc(N)[n+]1OS(=O)(=O)[O-] [Minoxidil Sulfate, minoxidil sulfate] : what is its pEC50 with GL-26 Glioma? 3.23

We now examine a further compound.
Form field - read-out: pEC50; system: GL-26 Glioma; submitted item: CC(N/C(=N\C#N)Nc1ccncc1)C(C)(C)C (centres unmarked) [Pinacidil, pinacidil] 3.68
